- Tested target: UniProtKB P03372
- Sequence (P03372 whole entry): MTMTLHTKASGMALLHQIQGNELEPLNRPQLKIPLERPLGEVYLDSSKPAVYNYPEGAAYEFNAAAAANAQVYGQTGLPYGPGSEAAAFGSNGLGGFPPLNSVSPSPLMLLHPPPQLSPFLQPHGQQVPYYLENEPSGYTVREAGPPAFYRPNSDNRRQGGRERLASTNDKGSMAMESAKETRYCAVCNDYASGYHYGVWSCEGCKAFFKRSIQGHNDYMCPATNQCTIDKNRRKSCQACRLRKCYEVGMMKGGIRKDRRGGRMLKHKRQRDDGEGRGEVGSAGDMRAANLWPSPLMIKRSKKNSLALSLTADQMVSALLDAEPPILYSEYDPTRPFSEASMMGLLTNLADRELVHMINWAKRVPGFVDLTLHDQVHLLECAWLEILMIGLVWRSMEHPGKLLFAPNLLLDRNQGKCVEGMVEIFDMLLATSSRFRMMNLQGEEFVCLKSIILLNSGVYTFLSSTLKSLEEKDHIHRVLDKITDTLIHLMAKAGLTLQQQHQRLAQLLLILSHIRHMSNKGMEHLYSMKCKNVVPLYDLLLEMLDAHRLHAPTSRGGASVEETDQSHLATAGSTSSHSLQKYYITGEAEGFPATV
- Assay summary: Agonist activity at ERalpha in estrogen-sensitive human T47D cells assessed as cell proliferation at 0.1 uM after 7 days by MTS assay
- Type: cell-based
- Conditions: 168 h
Measured attribute: Activity (%)
Give a bare numeral; the unit % is implied.

Specify reported Activity for the molecule shown: "O=C(c1ccc(CN(CCN2CCOCC2)Cc2ccco2)cc1)N1CCc2ccc(O)cc2C1"
105.9

Specify reported Activity for the molecule shown: "O=C(c1ccc(CN(Cc2ccc(O)cc2)Cc2ccco2)cc1)N1CCc2ccc(O)cc2C1"
138

Specify reported Activity for the molecule shown: "O=C(c1ccc(CN(Cc2ccc(OCCCN3CCCCC3)cc2)Cc2ccccn2)cc1)N1CCc2ccc(O)cc2C1"
104.5

Specify reported Activity for the molecule shown: "Cc1ccc(CN(Cc2ccc(C(=O)N3CCc4ccc(O)cc4C3)cc2)Cc2ccco2)s1"
103.2

Specify reported Activity for the molecule shown: "COc1ccc(CN(Cc2ccc(C(=O)N3CCc4ccc(O)cc4C3)cc2)Cc2ccccn2)cc1"
104.6

Specify reported Activity for the molecule shown: "Cc1ccc(CN(Cc2ccc(C(=O)N3CCc4ccc(O)cc4C3)cc2)Cc2ccccn2)s1"
105.4

Specify reported Activity for the molecule shown: "O=C(c1ccc(CN(Cc2ccccn2)Cc2ccccc2OCCCN2CCCCC2)cc1)N1CCc2ccc(O)cc2C1"
99.8

Specify reported Activity for the molecule shown: "O=C(c1ccc(CN(CCCn2ccnc2)Cc2ccccn2)cc1)N1CCc2ccc(O)cc2C1"
112.9

Specify reported Activity for the molecule shown: "O=C(c1ccc(CN(Cc2ccco2)Cc2ccccc2OCCCN2CCCCC2)cc1)N1CCc2ccc(O)cc2C1"
105.9

Specify reported Activity for the molecule shown: "O=C(c1ccc(CN(Cc2ccc(Br)cc2)Cc2ccco2)cc1)N1CCc2ccc(O)cc2C1"
109.4

Specify reported Activity for the molecule shown: "O=C(c1ccc(CN(Cc2ccc(OCCCN3CCCCC3)cc2)Cc2ccco2)cc1)N1CCc2ccc(O)cc2C1"
119.7

Specify reported Activity for the molecule shown: "O=C(c1ccc(CN(CCCn2ccnc2)Cc2ccco2)cc1)N1CCc2ccc(O)cc2C1"
98.5

Specify reported Activity for the molecule shown: "O=C(c1ccc(CN(Cc2ccccn2)Cc2ccco2)cc1)N1CCc2ccc(O)cc2C1"
103.2

====

- Tested target: Estrogen receptor (Homo sapiens, UniProt P03372)
- Sequence (P03372 whole entry): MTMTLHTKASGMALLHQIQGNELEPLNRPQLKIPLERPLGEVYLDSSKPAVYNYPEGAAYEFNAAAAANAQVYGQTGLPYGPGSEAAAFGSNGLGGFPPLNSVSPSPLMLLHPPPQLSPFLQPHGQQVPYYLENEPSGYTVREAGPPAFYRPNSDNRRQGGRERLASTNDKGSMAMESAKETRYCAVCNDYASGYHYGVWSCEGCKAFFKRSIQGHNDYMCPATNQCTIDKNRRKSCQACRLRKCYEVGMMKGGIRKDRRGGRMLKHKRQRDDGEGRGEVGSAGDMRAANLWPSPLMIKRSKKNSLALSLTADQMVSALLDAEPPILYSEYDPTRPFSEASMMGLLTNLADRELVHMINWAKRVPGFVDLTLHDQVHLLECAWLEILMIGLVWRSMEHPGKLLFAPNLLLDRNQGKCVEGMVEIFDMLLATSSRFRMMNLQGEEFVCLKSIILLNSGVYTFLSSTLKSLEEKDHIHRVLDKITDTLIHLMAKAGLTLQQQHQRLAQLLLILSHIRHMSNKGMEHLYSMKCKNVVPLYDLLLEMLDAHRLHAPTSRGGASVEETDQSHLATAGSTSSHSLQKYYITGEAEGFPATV
- Assay summary: Agonist activity at ERalpha in estrogen-sensitive human T47D cells assessed as cell proliferation at 1 uM after 7 days by MTS assay
- Assay type: cell-based
- Conditions: 168 h
Mark satisfied for Activity under 40%, not satisfied if at or over.

Threshold test, Activity < 40%: "O=C(c1ccc(CN(Cc2ccccn2)Cc2ccco2)cc1)N1CCc2ccc(O)cc2C1"
not satisfied

Threshold test, Activity < 40%: "O=C(c1ccc(CN(CCN2CCOCC2)Cc2ccco2)cc1)N1CCc2ccc(O)cc2C1"
not satisfied

Threshold test, Activity < 40%: "O=C(c1ccc(CN(Cc2ccc(OCCCN3CCCCC3)cc2)Cc2ccco2)cc1)N1CCc2ccc(O)cc2C1"
not satisfied

Threshold test, Activity < 40%: "O=C(c1ccc(CN(Cc2ccco2)Cc2ccccc2OCCCN2CCCCC2)cc1)N1CCc2ccc(O)cc2C1"
satisfied
